# Test system: NCI-H526 cells
# assay notes: In vitro cell inhibition assay - NCI-H526 cell proliferation (CellTiter-Glo)
# Type: cell-based
# test conditions: Homo sapiens, NCI-H526, 120 h, H526 small cell lung cancer cell proliferation, 5 days
pIC50: −log10 of the molar value. Structures can show the parent of a compound that is named as a salt.
readout: pIC50

                                   molecule  readout  value_reported
0  COc1ccc(-c2cnc(N3CCC(NCc4ccc(/C=C/C(=O)NO)nc4)CC3)c(OC)c2-c2ccc(C#N)nc2)cc1O [Example 266, formate]    pIC50            8.63
1  COc1ccc(-c2cnc(N3CCC(NCc4cnc(/C=C/C(=O)NO)nc4)CC3)c(C)c2-c2ccc(C#N)c(F)c2)cc1O [Example 202, formate]    pIC50            8.36
2  COc1ccc(-c2cnc(N3CCC(NCc4cnc(/C=C/C(=O)NO)cc4Cl)CC3)c(C#N)c2-c2ccc(C#N)c(F)c2)cc1O [Example 227, formate]    pIC50            6.96
3  Cc1ccc(-c2cnc(N3CCC(NCc4ccc(/C=C/C(=O)NO)cc4)CC3)c(C#N)c2-c2ccc(C#N)c(F)c2)cc1O [Example 102, formate]    pIC50            8.37

a. COc1ccc(-c2cnc(N3CCC(NCc4ccc(CCC(=O)NO)nc4)CC3)c(C#N)c2-c2ccc(C#N)c(F)c2)cc1O [Example 191, formate]
b. N#Cc1ccc(-c2c(-c3ccc(Cl)c(O)c3)cnc(N3CCC(NCc4ccc(/C=C/C(=O)NO)cc4)CC3)c2C#N)cc1F
Request: Returns the identifier with the smallest measured pIC50 among a and b . Please respond with the label that marks your chosen entry.
Response: a
(a: 7.59, b: 8.08)

Data origin, for the record: patent US20250304549A1
